# PROCEDURE SUMMARY: A CellTox Green Cytotoxicity Assay to monitor cytotoxicity in HepG2 cells - 32 hour (AID 1224883); also: nearly all actives have a fitted effect of over 50% in size
# CONDITION SET: CellTox Green fluorescence; series mostly up to 76.8 µM
Results filed as inconclusive are left out. Calls of active or inactive are those of the source. Calls follow the shape of the dose curve; as a rule, active = well fitted activation curve with a large enough effect in the repeat runs; inconclusive = weak or mixed curves; inactive = flat fitted curve, though single readings scatter.
Your response should consist of one outcome taken from true (1) = active, false (0) = inactive

CCO[Si](CCCCl)(OCC)OCC ... false (0)
CCCCCCCCCCCCCCOS(=O)(=O)O ... true (1)
CO[C@@H]1[C@H](OC(=O)/C=C/C=C/C=C/C=C/C(=O)O)CC[C@]2(CO2)[C@H]1[C@@]1(C)O[C@@H]1CC=C(C)C ... false (0)
O=C(O)C1(C(=O)O)CCC1.[NH2-].[NH2-].[Pt+2] ... false (0)
COC(=O)c1ccc(I)cc1S(=O)(=O)NC(=O)Nc1nc(C)nc(OC)n1 ... false (0)

### Prompt State the result this test recorded for `C/C=C(/C(=C/C)c1ccc(OC(C)=O)cc1)c1ccc(OC(C)=O)cc1` .
### Response false (0)

### Prompt State the result this test recorded for `CC(C)(CO)[N+](=O)[O-]` .
### Response false (0)

### Prompt State the result this test recorded for `CCOc1ccc(O)cc1` .
### Response false (0)

### Prompt State the result this test recorded for `CCOc1ccc(N)c([N+](=O)[O-])c1` .
### Response false (0)

### Prompt State the result this test recorded for `CCCCCCCC/C=C\CCCCCCCC(=O)OCC` .
### Response false (0)

### Prompt State the result this test recorded for `CC1=CC=C(C(C)C)CC1` .
### Response false (0)
